# target.desc: Histone deacetylase
# assay.text: Inhibitory activity against histone deacetylases (HDAC) prepared from mouse melanoma B16/BL6 cells
# Type: cell-based
property.label: IC50 (nM)

Worked cases, IC50 given:
1) CC[C@@H](C)[C@@H]1NC(=O)[C@@H](Cc2ccc(OC)cc2)NC(=O)[C@H](CCCCN(O)C=O)NC(=O)[C@H]2CCCCN2C1=O	957
2) CC[C@@H](C)[C@@H]1NC(=O)[C@@H](Cc2ccc(OC)cc2)NC(=O)[C@H](CCCCN(O)C=O)NC(=O)[C@@H]2CCCCN2C1=O	1392
3) CC[C@@H](C)[C@@H]1NC(=O)[C@@H](Cc2ccc(OC)cc2)NC(=O)[C@H](CCCCCN(O)C=O)NC(=O)[C@H]2CCCCN2C1=O	84
4) CC[C@@H](C)[C@@H]1NC(=O)[C@@H](Cc2ccc(OC)cc2)NC(=O)[C@H](CCCCCCC(=O)NO)NC(=O)[C@@H]2CCCCN2C1=O	3.96
5) CC[C@@H](C)[C@@H]1NC(=O)[C@@H](Cc2ccc(OC)cc2)NC(=O)[C@H](CCCCCN(O)C=O)NC(=O)[C@@H]2CCCCN2C1=O	141

(A) CC[C@@H](C)[C@@H]1NC(=O)[C@@H](Cc2ccc(OC)cc2)NC(=O)[C@H](CCCCCCN(O)C=O)NC(=O)[C@H]2CCCCN2C1=O
(B) CC[C@@H](C)[C@@H]1NC(=O)[C@@H](Cc2ccc(OC)cc2)NC(=O)[C@H](CCCCN(O)C(C)=O)NC(=O)[C@@H]2CCCCN2C1=O
Q. Given A and B , report the one with the higher recorded IC50. Identify your pick by its label.
A. B

(I) CC[C@@H](C)[C@@H]1NC(=O)[C@@H](Cc2ccc(OC)cc2)NC(=O)[C@H](CCCCCN(O)C(C)=O)NC(=O)[C@@H]2CCCCN2C1=O
(II) CC[C@@H](C)[C@@H]1NC(=O)[C@@H](Cc2ccc(OC)cc2)NC(=O)[C@H](CCCCN(O)C(C)=O)NC(=O)[C@H]2CCCCN2C1=O
(III) CC[C@@H](C)[C@@H]1NC(=O)[C@@H](Cc2ccc(OC)cc2)NC(=O)[C@H](CCCCCCN(O)C=O)NC(=O)[C@@H]2CCCCN2C1=O
Q. Kindly order the items shown according to IC50, from the highest value down. # respond with the labels, arranged in the requested order
A. II, I, III
(II: 88400 nM, I: 58000 nM, III: 1350 nM)
